The origin of these recorded values is ChEMBL document CHEMBL1133456.

- EXPERIMENT DESCRIPTION: Toxic dose in DBA/2 mice; Values ranges from: 82.6-306
- Assay type: toxicity
- CONDITION LABEL: DBA/2, mouse, in vivo
READOUT LABEL: TD50 (µmol/kg)
Unit µmol/kg implied. Number only.

// lookup TD50 for O=C1Cc2cc3c(cc2C(c2ccccc2)=NN1)OCO3
159

====

Measured ED50 by item
- EXPERIMENT DESCRIPTION: Anticonvulsant activity against audiogenic seizures in DBA/2 mice expressed as ED50 values in tonic phase
- Assay type: functional
- CONDITION LABEL: Mus musculus
Field: numeric (µmol/kg). Do not append units.

- SMILES DATA: "CNC(=O)n1nc(-c2ccc(N)cc2)c2cc3c(cc2c1=O)OCO3"
  ED50 / µmol/kg: 16.8

I am curious: what ED50 value has been reported for Nc1ccc(-c2nn(C(=O)NC3CCCCC3)c(=O)c3cc4c(cc23)OCO4)cc1 ?
26.2

Please answer likewise for CCCCCNC(=O)n1nc(-c2ccc(N)cc2)c2cc3c(cc2c1=O)OCO3
5.34

Again, but for CCNC(=O)n1nc(-c2ccc(N)cc2)c2cc3c(cc2c1=O)OCO3
35.1

Please do the same for CCCNC(=O)n1nc(-c2ccc(N)cc2)c2cc3c(cc2c1=O)OCO3 as well.
6.82

Again, but for CCCCNC(=O)n1nc(-c2ccc(N)cc2)c2cc3c(cc2c1=O)OCO3
2.23

// same read-out, input: CCCCNC(=O)n1nc(-c2cccc(N)c2)c2cc3c(cc2c1=O)OCO3
22.4

====

- EXPERIMENT DESCRIPTION: Ratio between TD50 and ED50 from the clonic phase of audiogenic seizures in mice
- Type: ADME, organism-based
- CONDITION LABEL: mouse, in vivo; read-out: Protective index
# note: boundary value 3 maps to 0 (no); selectivity ratio below it maps to 1 (yes)

The following compounds have reported results that may help.
- SMILES DATA: "Nc1ccc(C2=NNC(=O)Cc3cc4c(cc32)OCO4)cc1"
  DISCRETE LABEL: "0 (no)"
- SMILES DATA: "Oc1nnc(-c2ccccc2)c2cc3c(cc12)OCO3"
  DISCRETE LABEL: "0 (no)"
- SMILES DATA: "CC1=NN=C(c2ccc(N)cc2)c2cc3c(cc2C1)OCO3"
  DISCRETE LABEL: "1 (yes)"
- SMILES DATA: "Nc1ccc(-c2nnc(S)c3cc4c(cc23)OCO4)cc1"
  DISCRETE LABEL: "0 (no)"
- SMILES DATA: "Nc1ccc(-c2nnc(O)c3cc4c(cc23)OCO4)cc1"
  DISCRETE LABEL: "1 (yes)"
- SMILES DATA: "Nc1cccc(C2=NNC(=O)Cc3cc4c(cc32)OCO4)c1"
  DISCRETE LABEL: "0 (no)"
- SMILES DATA: "Sc1nnc(-c2ccccc2)c2cc3c(cc12)OCO3"
  DISCRETE LABEL: "0 (no)"
- SMILES DATA: "O=C1Cc2cc3c(cc2C(c2ccccc2)=NN1)OCO3"
  DISCRETE LABEL: "0 (no)"

Problem: For the compound Nc1cccc(-c2nnc(O)c3cc4c(cc23)OCO4)c1 , is selectivity ratio under 3?
0 (no)
